# protocol: Metabolic stability in mouse liver microsomes
# Assay type: ADME, Microsome
# details: read-out: Stability

| compound-string | half-life [min] |
| --- | --- |
| C[C@@H]1CN(c2ccc(F)cc2C(F)(F)F)CCN1S(=O)(=O)c1cccc(-n2cncn2)c1 | 12 |

----------
# protocol: in vitro
# details: human, liver microsomes
Recorded half-life values for a group of compounds are listed next.
parameter: half-life

| compound-string | obs-value |
| --- | --- |
| C[C@@H]1CN(c2ccc(F)cc2C(F)(F)F)CCN1S(=O)(=O)c1ccc(N2CCOCC2)cc1 | > 30 min |
| C[C@@H]1CN(c2ccc(F)cc2C(F)(F)F)CCN1S(=O)(=O)c1ccc(C#N)cc1Cl | 14 min |
| C[C@@H]1CN(c2ccc(F)cc2C(F)(F)F)CCN1S(=O)(=O)c1ccc(N2CCN[C@@H](C)C2)cc1Cl | > 30 min |
| C[C@@H]1CN(c2ccc(F)cc2C(F)(F)F)CCN1S(=O)(=O)c1ccc(-c2nnn[nH]2)cc1 | > 30 min |
| C[C@@H]1CN(c2ccc(F)cc2C(F)(F)F)CCN1S(=O)(=O)c1ccc(NC(=O)N2CCOCC2)cc1Cl | > 30 min |
| C[C@@H]1CN(c2ccc(F)cc2C(F)(F)F)CCN1S(=O)(=O)c1ccc(OC(F)F)cc1Cl | 30 min |
| C[C@@H]1CN(c2ccc(F)cc2C(F)(F)F)CCN1S(=O)(=O)c1ccc(N2CCC(N(C)C)CC2)cc1Cl | > 30 min |
| C[C@@H]1CN(c2ccc(F)cc2C(F)(F)F)CCN1S(=O)(=O)c1ccc(N2CCC(F)CC2)cc1Cl | > 30 min |

Each recorded value in this set is attributed to ChEMBL document CHEMBL1152435.
